- Tested on: M. suipneumoniae NB12
- Experimental details: Anti-mycoplasmal activity, MIC in Friis broth agarose
- Assay type: cell-based
- Measurement parameters: Mesomycoplasma hyopneumoniae, 144 h, Friis broth solidified with 0.9% agarose, 6 days incubation at 37°C, read-out: MIC
Parameter: MIC
Write the figure, then the unit, nothing else.

Worked set:
# Molecule, MIC
records = [
    ("CC(=CC(=O)OCc1cccc(S(C)(=O)=O)c1)CC1OCC(CC2OC2C(C)C(C)O)C(O)C1O (stereo not drawn) [Example 7, m-Methylsulfonylbenzyl monate A]", "0.5 µg/mL"),
    ("CC(=CC(=O)OCc1ccc(S(C)(=O)=O)cc1)CC1OCC(CC2OC2C(C)C(C)O)C(O)C1O (stereo not drawn) [Example 3, p-Methylsulphonylbenzyl monate A]", "0.1 µg/mL"),
    ("CSc1ccc(COC(=O)C=C(C)CC2OCC(CC3OC3C(C)C(C)O)C(O)C2O)cc1 (stereo not drawn) [Example 1, p-Methylthiobenzyl monate A]", "0.5 µg/mL"),
    ("CC(=CC(=O)OCc1cccc([S+](C)[O-])c1)CC1OCC(CC2OC2C(C)C(C)O)C(O)C1O (stereo not drawn) [Example 6, m-Methylsulfinylbenzyl monate A]", "5 µg/mL"),
    ("CC(=CC(=O)OC(C)c1ccc(S(C)(=O)=O)cc1)CC1OCC(CC2OC2C(C)C(C)O)C(O)C1O (stereo not drawn) [Example 9, 1-(p-Methylsulfonylphenyl)ethyl monate A]", "1 µg/mL"),
]

Read the next record carefully.
QUERY: Provide the documented MIC with M. suipneumoniae NB12 as the system for CC(=CC(=O)OCc1ccc([S+](C)[O-])cc1)CC1OCC(CC2OC2C(C)C(C)O)C(O)C1O (stereo not drawn) [Example 2, p- Methylsulphinylbenzyl monate A]
RESULT: 0.25 µg/mL

# credit: patent EP0093484A2
